Biological target: rat P2X2 D315A (Rattus norvegicus, UniProt P49653, D315A)
Sequence (P49653 1-472 D315A): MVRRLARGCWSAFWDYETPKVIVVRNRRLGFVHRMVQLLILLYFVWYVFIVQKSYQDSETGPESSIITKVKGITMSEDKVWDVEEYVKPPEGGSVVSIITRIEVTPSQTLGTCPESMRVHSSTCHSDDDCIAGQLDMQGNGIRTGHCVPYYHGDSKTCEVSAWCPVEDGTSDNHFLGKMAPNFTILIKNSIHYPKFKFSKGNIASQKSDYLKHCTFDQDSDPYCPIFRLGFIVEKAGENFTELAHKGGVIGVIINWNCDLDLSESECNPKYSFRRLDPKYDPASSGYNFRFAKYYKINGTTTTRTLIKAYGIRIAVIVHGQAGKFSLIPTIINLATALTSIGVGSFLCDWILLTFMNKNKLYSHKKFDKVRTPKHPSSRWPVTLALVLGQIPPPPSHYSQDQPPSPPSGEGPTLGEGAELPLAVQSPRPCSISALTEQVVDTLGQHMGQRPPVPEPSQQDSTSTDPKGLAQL
Assay: ATP dose–response, two-electrode voltage clamp in Xenopus oocytes, D315A
Type: cell-based
Details: EC50 (1), first phase of biphasic dose–response, at −160 mV

molecule	EC50
Nc1ncnc2c1ncn2[C@@H]1O[C@H](COP(=O)(O)OP(=O)(O)OP(=O)(O)O)[C@@H](O)[C@H]1O [ATP, adenosine triphosphate]	1200 nM

Values compiled from paper PMC4035740.
